System: DLD1
procedureText: TCF/Wnt firefly luciferase reporter signal relative to plate median (fraction of plate median); higher = higher Wnt reporter signal
conditionContext: 5 µM; treatment time 24 h; reporter: 7TFP
// label = 1 if TCF/Wnt firefly luciferase reporter signal is not less than 1, otherwise -1

O=C(CNC(=O)c1ccc(Cl)cc1)NO: 1
NCCOB(c1ccccc1)c1ccccc1: 1
Nc1ccccc1C(=O)CC(N)C(=O)O (stereo not drawn): 1
O=C(O[C@@H]1Cc2c(O)cc(O)cc2O[C@@H]1c1cc(O)c(=O)c2c(O)c(O)cc([C@H]3Oc4cc(O)cc(O)c4C[C@H]3O)c2c1)c1cc(O)c(O)c(O)c1: 1
CCOC(N)=O: 1
CN(C)CCOC(=O)C(c1ccccc1)C1(O)CCCC1 (stereo not drawn): 1
COc1cc(OC)c(C(C)=O)c(O)c1C: -1
CC12CCC(CC1)C(C)(C)O2: 1
NS(=O)(=O)c1cc2c(cc1Cl)NC(C1CC3C=CC1C3)NS2(=O)=O (stereo not drawn): 1
COc1ccc(-c2cc(=O)c3cc(OC)ccc3o2)cc1: 1
CCCCC(=O)O[C@H]1CC[C@H]2[C@@H]3CCc4cc(O)ccc4[C@H]3CC[C@]12C: -1
OC[C@@H](O)[C@@H](O[C@@H]1O[C@H](CO)[C@H](O)[C@H](O)[C@H]1O)[C@H](O)[C@@H](O)CO: -1
C/C1=C\CCC(=O)C2CC(C)(C)C2CC1 (stereo not drawn): -1
CC1=CC(=O)[C@H]2C(C)(C)CCC[C@]2(C)[C@@]1(O)CCc1ccoc1: 1
CC1(C)S[C@@H]2[C@H](NC(=O)[C@H](C(=O)O)c3ccsc3)C(=O)N2[C@H]1C(=O)O: -1
C=C1[C@H]2CC[C@@]3(C)[C@H](c4ccoc4)OC(=O)C[C@]13O[C@H]1C[C@H](O)C(C)(C)[C@H](CC(=O)OC)[C@]12C [3-DEOXY-3beta-HYDROXYANGOLENSIC ACID METHYL ESTER]: 1
O=C1c2c(O)cccc2C([C@@H]2O[C@H](CO)[C@@H](O)[C@H](O)[C@H]2O)c2cc(CO)cc(O)c21 (stereo partly drawn): 1
Cc1ccccc1C(OCCN(C)C)c1ccccc1 (stereo not drawn): 1
C[C@]12C=CC(=O)C=C1CC[C@@H]1[C@@H]2C(=O)C[C@@]2(C)[C@H]1CC[C@]2(O)C(=O)CO: 1
C[C@@H]1[C@H]2[C@H](O[C@@H]3O[C@H](CO)[C@@H](O)[C@H](O)[C@H]3O)OC=C(C(=O)O)[C@H]2C[C@@H]1O: 1
NS(=O)(=O)c1cc2c(cc1Cl)NC(C(Cl)Cl)NS2(=O)=O (stereo not drawn): 1
CO[C@@]1(NC(=O)C(C(=O)O)c2ccc(O)cc2)C(=O)N2C(C(=O)O)=C(CSc3nnnn3C)CO[C@@H]21 (stereo partly drawn): -1
CC(=O)N[C@@H](Cc1c[nH]c2ccccc12)C(=O)O: -1
CCN(CC)CCOC(=O)C(Cc1cccc2ccccc12)CC1CCCO1 (stereo not drawn): -1
COC(=O)C1=CO[C@@H](O[C@@H]2O[C@H](CO)[C@@H](O)[C@H](O)[C@H]2O)[C@H]2[C@@H]1C(=O)C[C@@H]2C: 1
O=C(Cn1ccnc1[N+](=O)[O-])NCCO: 1
CC(=O)OCC(=O)[C@@]1(O)CC[C@H]2[C@@H]3CCC4=CC(=O)CC[C@]4(C)[C@@]3(F)[C@@H](O)C[C@@]21C: 1
CN1CCN(CCCN2c3ccccc3Sc3ccc(Cl)cc32)CC1: 1
C/C=C/C=C/c1cc2cc3c(c(O)c2c(=O)[nH]1)C1(CC3)C(O)=c2c(=O)c3c(=O)cc(OC)c(=O)c=3c(=O)c2=C1O (stereo not drawn): 1
CN(C)CCc1c[nH]c2ccc(C[C@H]3COC(=O)N3)cc12: 1
Clc1ccccc1CN1CCc2sccc2C1: -1
Nc1cc(N2CCCCC2)nc(N)[n+]1[O-]: 1
